Data provenance: paper PMC12136788

The following binders are listed with their measured binding signal values.
- measuredTarget: T1, UNK ZnF1-3 (human, UniProt Q9C0B0 31-174)
- T1 sequence: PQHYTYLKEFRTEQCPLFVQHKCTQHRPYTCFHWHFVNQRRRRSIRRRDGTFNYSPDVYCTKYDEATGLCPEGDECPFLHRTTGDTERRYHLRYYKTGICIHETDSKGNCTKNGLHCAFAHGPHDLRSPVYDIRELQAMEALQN
- assayOverview: nsRBNS (natural sequence RNA bind-n-seq); RBNS binding buffer (assumed for nsRBNS): 25 mM Tris pH 7.5, 150 mM KCl, 3 mM MgCl2, 0.01% Triton X-100, 500 ug/ml BSA, 20 U/ml SUPERase-In, 4 C; UNK is unkempt and MSI1 is Musashi-1; names of the RNAs are library labels; protein concentration not given here; high values mean tight binding
The full ranking holds about 24,000 sequences; the median of “enrichment r” is about 0.99, and the highest 2% start at about 3.7. The sample holds the highest values, similar sequences and a random draw of the others, so the mix is not that of the screen.
# unit: enrichment R | format: bare number

Answered cases to consult:
[
  {
    "binder": "chr3:38349274:38349275:-_ENSMUSG00000044864_ENSMUST00000156038|mus_mus|FALSE|FALSE (ssRNA) RNA: GGGAGUUCUACAGUCCGACGAUCAAAUGACCAAGUACAGCAAGCAGGCUGGCUACAGCACCCUGGUCAGCCUGGUCCUCGCCAGAAGCUGUUUUUGUUCUACUUUAAAUCAGUUAAUAAUAAAAACAAAACAAAAGGGAAAAACAACAGAGGAUUGAGCAUCA",
    "binding signal, enrichment R": 0.882
  },
  {
    "binder": "chr3:8561242:8561243:+_ENSMUSG00000027500_ENSMUST00000029002|mus_hu|FALSE|FALSE (ssRNA) RNA: GGGAGUUCUACAGUCCGACGAUCAACAACCAGCUCACAGUUUCCAAGUGGAAAAAUAUUCAGUAGCAUCAUGUACUUGUACUAUAGGUAAGAGCUUAAAAUGAACAUCAUCAAUCAUGGCAUCCACAAAUAAGCCACCUGACACAACAGAGGAUUGAGCAUCA",
    "binding signal, enrichment R": 1.49
  },
  {
    "binder": "chr17:65336665:65336666:-_ENSG00000197170_ENST00000356126|hu_mus|FALSE|FALSE (ssRNA) RNA: GGGAGUUCUACAGUCCGACGAUCACACAUGUCCUGUUUUUAUUACUAUCACGUGGCUGUCAGGUGAAUAAAAACAAAUAGUAUGAACACACUCAAGGAAAGCUGAGACACAAACCUUUCUGUCUUCAGACUGAAAAAAUGUUUCAACAGAGGAUUGAGCAUCA",
    "binding signal, enrichment R": 1.19
  },
  {
    "binder": "chr12:86311719:86311720:-_ENSMUSG00000042350_ENSMUST00000043169|mus_hu|FALSE|FALSE (ssRNA) RNA: GGGAGUUCUACAGUCCGACGAUCGACUGCCAAAGGACGCCCCAGGAUCCCGAGCCGGGGGUUGCAGCGCGACGAAGUUCCACCUCCGCUGUCCUGGGAAGGGGCGGCAGCACUCAGCAGAAGACGGGCUCCCCACUCUCCCACCAACAGAGGAUUGAGCAUCA",
    "binding signal, enrichment R": 1.33
  },
  {
    "binder": "chr4:140556289:140556290:+_ENSMUSG00000036622_ENSMUST00000037055|mus_mus|mus_mus_mus_hu_False|8_78 (ssRNA) RNA: GGGAGUUCUACAGUCCGACGAUCGAUGGAGCUCACCAGGCCCCCUUUUGCCGUGCAGAACCCUGUCCGGGUCACCACUGCCAGGACGUGCGGUCCCACAUAGGCCCGGGCCUGCAAGAUGAGGGUCCCACAGAAGAGUGUGUGCAACAGAGGAUUGAGCAUCA",
    "binding signal, enrichment R": 1.02
  }
]

## Task Given the binder chr1:235506153:235506154:+_ENSG00000152904_ENST00000391855|hu_hu|FALSE|FALSE (ssRNA) RNA: GGGAGUUCUACAGUCCGACGAUCCUACUCACCUAUUUACUGUUUCUGGAGAAUAACAAAUUUUUUAAAAGGUGGUAAGGCUAAAAGACAAAAAAAAGAUUAACUAAAAUAAGCUAUGAGGUCCAAUCAAGAAUGGCUUAACAUCAACAGAGGAUUGAGCAUCA , what is its reported binding signal?
## Result 5.06

## Task Given the binder chr9:108469239:108469240:-_ENSMUSG00000070283_ENSMUST00000074208|mus_hu|FALSE|FALSE (ssRNA) RNA: GGGAGUUCUACAGUCCGACGAUCGGGAAGCUCAACGGGCGGACAGCGCAGCGAGGGUCGCGCUCGGUACAAGCUACGUAGCGCGAGAGCGGUGGCCAUGGCUGACCAACGCGCGGCGAAGUCGUCACCGGCGCCGUUAGUCCCCAACAGAGGAUUGAGCAUCA , what is its reported binding signal?
## Result 0.446
